Experimental System: T1, cynomolgus CD38 ECD (cynomolgus, UniProt Q5VAN0 44-301, biotinylated on the AviTag during preparation)
T1 construct: also called Cyno-CD38; Avi-Cyno CD38 ECD
Method Notes: SPR (Biacore 8K), antibody captured, antigen injected;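 further: antibodies held on a CM5 chip through anti-human IgG Fc, antigen in 3-fold serial dilutions, 1 min association then 10 min dissociation at 25 °C, 1:1 Langmuir global fit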
Quantity Measured: koff (s⁻¹)
Give just the number in s⁻¹; leave the unit off.

// worked examples, koff included
For the binder 20B5 (antibody, human IgG1, kappa, V domains shown, Rabbit-human chimeric anti-CD38: rabbit VH and VL on human IgG1 and kappa constant regions) VH: QSLEESGGDLVKPGASLTLTCTASGFSFSSRYWICWVRQAPGKGLEWIACIVAGTTNTYYASWAKGRFTISKTSSTTVTLQMTSLTAADTATYFCAGDPRTGSNVGYFNLWGPGTLVTVSS VL: AQVLTQTPSPVSAAVGGTVTINCQASQSVYNNNYLAWFQQKPGQPPKLLIYSASTLASGVPSRFKGSGSGTQFTLTISEVQSDDAATYYCQAYYSGGIYAFGGGTEVVVKR , give its reported koff.
0.0322

Quote koff reported for 18E4 (antibody, human IgG1, kappa, V domains shown, Rabbit-human chimeric anti-CD38: rabbit VH and VL on human IgG1 and kappa constant regions) VH: QSLEESGGDLVKPGASLTLTCTASGFSFNNYWICWIRQAPGKGLEWVACIYSPSGDIKYYANWAKGRFTVSKTSSTTVTLQMTSLTGADTATYFCARELSGSSYEGYFESWGPGTLVTVSS VL: AQVLTQTPSSVSAAVGGTVTINCQCSQSVYGHNWLAWYQHKPGQPPKLLMYRASNLASGVPSRFKGSGSGSQFTLTIGEVQSDDAATYYCQGYYNGGSYAFGGGTEVVVRR please.
0.000236

Now consider the entry below.
Name the recorded koff of the item 1E2 (antibody, human IgG1, kappa, V domains shown, Rabbit-human chimeric anti-CD38: rabbit VH and VL on human IgG1 and kappa constant regions) VH: QSVEESGGRLVTPGTPLTLTCTVSGIDLNSYAMGWVRQAPGKGLKYIGIMTSGGNIYYANWAKGRFTISKTSTTVDLRITSPTTEDTATYFCAREREFYGGGTSGSRLDLWGQGTLVTVSS VL: AYDMTQTPASVEAAVGGTVTIKCQASQSIYNFLNWYQQKPGQPPKLLIYYASTLAFGVPSRFKGSGSGTEYTLTISGVESADAATYYCQQGWNSGILDNSFGGGTEVVVKR in your answer.
0.0124
